Measured Kd accompanies every entry in the list below.
target: GDP-bound KRAS wild-type protein (Homo sapiens, UniProt P01116); test: Binding to KRAS by surface plasmon resonance (SPR), dissociation constant KD; settings: Single Cycle Kinetics, 1:1 binding model
Sequence (P01116 1-188 isoform P01116-2): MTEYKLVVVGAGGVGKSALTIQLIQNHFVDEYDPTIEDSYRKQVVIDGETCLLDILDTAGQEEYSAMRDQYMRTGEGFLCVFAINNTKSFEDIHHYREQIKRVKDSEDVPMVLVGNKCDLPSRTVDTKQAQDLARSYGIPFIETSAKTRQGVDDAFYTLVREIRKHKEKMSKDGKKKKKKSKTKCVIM
Dear colleague, please return just the value in nM, with no unit written.

compound	Kd [nM]
CC[C@H](C)[C@@H]1NC(=O)[C@H](CC)N(C)C(=O)C[C@@H](C(=O)N(C)C)N(C)C(=O)[C@H](C2CCCC2)N(C)C(=O)C2(CCC2)NC(=O)[C@@H]2C[C@@H](C(F)(F)F)CN2C(=O)[C@H](CCc2cc(F)c(C(F)(F)F)c(F)c2)NC(=O)CN(C)C(=O)[C@H](Cc2ccc(C(F)(F)F)cc2)N2CC/C=C\C[C@@H](C2=O)N(C)C(=O)CN(C)C1=O [PP1133]	0.05

Fill in: GDP-bound KRAS wild-type protein (Homo sapiens, UniProt P01116) Kd for CCO[C@@H]1C[C@H]2C(=O)NC3(CCC3)C(=O)N(C)[C@@H](C3CCCC3)C(=O)N(C)[C@H](C(=O)N3CCCC3)CC(=O)N(C)[C@@H](CC3CCCC3)C(=O)N[C@@H]([C@@H](C)CC)C(=O)N(C)CC(=O)N(C)[C@H]3C/C=C\CCN(C3=O)[C@@H](Cc3ccc(F)cc3)C(=O)N(C)CC(=O)N[C@@H](CCc3ccc4sccc4c3)C(=O)N2C1 [PP1391] = 1.6

Fill in: GDP-bound KRAS wild-type protein (Homo sapiens, UniProt P01116) Kd for CCC[C@H]1C(=O)N[C@@H]([C@@H](C)CC)C(=O)N(C)CC(=O)N(C)[C@H]2C/C=C\CCN(C2=O)[C@@H](Cc2ccc(C)cc2)C(=O)N(C)CC(=O)N[C@@H](CCc2cc(F)c(C(F)(F)F)c(F)c2)C(=O)N2C[C@H](C)C[C@H]2C(=O)NC2(CCC2)C(=O)N(C)[C@@H](C2CCCC2)C(=O)N(C)[C@H](C(=O)N(C)CC)CC(=O)N1C [PP1862] = 0.12
